Data origin, for the record: ChEMBL document CHEMBL1795327

- test_target: Alpha-1D adrenergic receptor (Homo sapiens, UniProt P25100)
- Sequence (P25100 whole entry): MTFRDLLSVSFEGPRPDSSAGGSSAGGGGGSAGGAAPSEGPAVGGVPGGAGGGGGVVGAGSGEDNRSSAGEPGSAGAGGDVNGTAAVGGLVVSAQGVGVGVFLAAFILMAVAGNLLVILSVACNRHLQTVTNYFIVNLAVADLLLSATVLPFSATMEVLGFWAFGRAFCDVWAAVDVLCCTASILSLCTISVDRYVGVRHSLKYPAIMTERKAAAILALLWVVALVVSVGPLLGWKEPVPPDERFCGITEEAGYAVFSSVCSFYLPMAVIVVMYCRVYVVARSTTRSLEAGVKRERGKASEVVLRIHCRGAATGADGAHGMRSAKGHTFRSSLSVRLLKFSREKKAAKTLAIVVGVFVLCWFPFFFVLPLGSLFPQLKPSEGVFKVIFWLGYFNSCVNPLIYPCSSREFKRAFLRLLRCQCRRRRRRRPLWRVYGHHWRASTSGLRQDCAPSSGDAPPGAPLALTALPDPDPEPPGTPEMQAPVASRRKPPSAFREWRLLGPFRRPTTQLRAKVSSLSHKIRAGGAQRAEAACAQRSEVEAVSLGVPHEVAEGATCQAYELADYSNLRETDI
- assay_text: Displacement of [125I]BE-2254 from human adrenergic Alpha-1D receptor expressed in HEK293 cells
- Format: cell-based
pKi: −log10 of the molar value.
readout_label: pKi

Illustrative cases are given below, each with its answer.
COc1ccc(Cl)cc1N1CCN(CCCCN2C(=O)CC(c3ccccc3)CC2=O)CC1 | 7.41
COc1ccccc1N1CCN(CCCCN2C(=O)CC(c3ccccc3)CC2=O)CC1 | 7.80
COc1ccccc1N1CCN(CCCN2C(=O)CC3(CCc4ccccc43)CC2=O)CC1 | 7.12
O=C1CC(c2ccccc2)CC(=O)N1CCCCN1CCN(c2ccccc2Cl)CC1 | 7.47
COc1ccccc1N1CCN(CCCCN2C(=O)CC3(CCc4ccccc43)CC2=O)CC1 | 7.79

(P) COc1ccc(Cl)cc1N1CCN(CCCCN2C(=O)CC(C)(c3ccccc3)CC2=O)CC1
(Q) COc1ccccc1N1CCN(CCCCCN2C(=O)CC(c3ccccc3)CC2=O)CC1
(R) COc1ccccc1N1CCN(CCCCN2C(=O)CC(C)(c3ccccc3)CC2=O)CC1
(S) COc1ccc(Cl)cc1N1CCN(CCCN2C(=O)CC(c3ccccc3)CC2=O)CC1
Exercise: Form: Sort by [pKi] Order [ ascending ] Ranked list of labels, please, in the requested order.
Key: S, P, Q, R
(S: 6.41, P: 7.11, Q: 7.51, R: 7.84)

###

- test_target: Alpha-1B adrenergic receptor (Homo sapiens)
- Sequence (P35368 whole entry): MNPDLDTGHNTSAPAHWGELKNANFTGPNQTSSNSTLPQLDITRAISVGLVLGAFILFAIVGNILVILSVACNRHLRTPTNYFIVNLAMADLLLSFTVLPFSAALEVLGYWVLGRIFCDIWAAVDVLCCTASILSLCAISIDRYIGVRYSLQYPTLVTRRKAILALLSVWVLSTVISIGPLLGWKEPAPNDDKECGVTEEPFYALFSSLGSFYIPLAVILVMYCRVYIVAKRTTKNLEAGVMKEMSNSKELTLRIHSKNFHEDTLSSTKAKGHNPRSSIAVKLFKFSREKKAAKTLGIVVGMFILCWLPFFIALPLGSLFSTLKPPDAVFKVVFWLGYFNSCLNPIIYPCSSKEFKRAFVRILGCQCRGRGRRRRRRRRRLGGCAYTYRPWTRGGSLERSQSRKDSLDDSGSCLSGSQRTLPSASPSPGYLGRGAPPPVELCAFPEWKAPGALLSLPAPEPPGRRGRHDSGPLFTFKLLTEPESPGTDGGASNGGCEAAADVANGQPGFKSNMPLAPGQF
- assay_text: Binding affinity to adrenergic Alpha-1B receptor
readout_label: Ki (nM)
Numeric answer only, unit nM assumed.

Exercise: // lookup Ki for "COc1ccccc1N1CCN(CCN2C(=O)CC3(CCCC3)CC2=O)CC1"
Key: 50.1

###

- test_target: Alpha-1A adrenergic receptor (Homo sapiens, UniProt P35348)
- Sequence (P35348 whole entry): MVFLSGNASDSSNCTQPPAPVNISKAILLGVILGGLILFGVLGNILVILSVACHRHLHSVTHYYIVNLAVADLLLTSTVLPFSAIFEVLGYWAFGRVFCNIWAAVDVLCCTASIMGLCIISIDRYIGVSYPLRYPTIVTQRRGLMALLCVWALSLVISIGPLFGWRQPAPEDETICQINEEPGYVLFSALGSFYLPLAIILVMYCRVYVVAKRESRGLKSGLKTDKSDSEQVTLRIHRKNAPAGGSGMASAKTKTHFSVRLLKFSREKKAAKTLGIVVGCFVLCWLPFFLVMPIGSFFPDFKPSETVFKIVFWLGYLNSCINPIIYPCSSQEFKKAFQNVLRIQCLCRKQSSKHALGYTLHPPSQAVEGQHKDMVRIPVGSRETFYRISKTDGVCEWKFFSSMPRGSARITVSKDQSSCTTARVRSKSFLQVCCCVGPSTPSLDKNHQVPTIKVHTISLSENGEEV
- assay_text: Displacement of [125I]BE-2254 from human adrenergic alpha1A receptor expressed in HEK293 cells
- Format: cell-based
readout_label: Ki (nM)

(I) O=C1CC(c2ccccc2)CC(=O)N1CCCN1CCN(c2ccccc2Cl)CC1
(II) COc1ccc(Cl)cc1N1CCN(CCCN2C(=O)CC(c3ccccc3)CC2=O)CC1
Exercise: Lower value for measured Ki? Options: I , II State your choice using its label.
Key: I
(I: 47.9 nM, II: 191 nM)

###

- test_target: Alpha-1D adrenergic receptor (Homo sapiens)
- assay_text: Displacement of [125I]BE-2254 from human adrenergic Alpha-1D receptor expressed in HEK293 cells
- Type: cell-based
readout_label: Ki (nM)

Illustrative cases are given below, each with its answer.
O=C1CC(c2ccc(Cl)cc2)CC(=O)N1CCN1CCN(c2ccccc2Cl)CC1 | 1510
COc1ccccc1N1CCN(CCN2C(=O)CC(c3ccccc3)CC2=O)CC1 | 1320
COc1ccc(Cl)cc1N1CCN(CCCN2C(=O)CC(C)(c3ccccc3)CC2=O)CC1 | 97.7

(P) O=C1CC(c2ccccc2)CC(=O)N1CCN1CCN(c2ccccc2Cl)CC1
(Q) COc1ccccc1N1CCN(CCCN2C(=O)CC(c3ccc(Cl)cc3)CC2=O)CC1
Exercise: Lower value for measured Ki? Options: P , Q State your choice using its label.
Key: Q
(Q: 69.2 nM, P: 631 nM)

###

- test_target: Alpha-1D adrenergic receptor (Homo sapiens, UniProt P25100)
- assay_text: Displacement of [125I]BE-2254 from human adrenergic Alpha-1D receptor expressed in HEK293 cells
- Type: cell-based
pKi: −log10 of the molar value.
readout_label: pKi

COc1ccccc1N1CCN(CCCCN2C(=O)CC(c3ccc([N+](=O)[O-])cc3)CC2=O)CC1 | 7.27

(1) COc1ccccc1N1CCN(CCCCN2C(=O)CC(c3ccc(Cl)cc3)CC2=O)CC1
(2) O=C1CC(c2ccccc2)CC(=O)N1CCCN1CCN(c2ccccc2Cl)CC1
Exercise: Lower value for measured pKi? Options: 1 , 2 State your choice using its label.
Key: 1
(1: 7.14, 2: 7.36)
